- SYSTEM: C-Rel subunit;p52 subunit (Homo sapiens;Homo sapiens, UniProt Q04864;Q00653 1-285;4-332)
- Sequence 1: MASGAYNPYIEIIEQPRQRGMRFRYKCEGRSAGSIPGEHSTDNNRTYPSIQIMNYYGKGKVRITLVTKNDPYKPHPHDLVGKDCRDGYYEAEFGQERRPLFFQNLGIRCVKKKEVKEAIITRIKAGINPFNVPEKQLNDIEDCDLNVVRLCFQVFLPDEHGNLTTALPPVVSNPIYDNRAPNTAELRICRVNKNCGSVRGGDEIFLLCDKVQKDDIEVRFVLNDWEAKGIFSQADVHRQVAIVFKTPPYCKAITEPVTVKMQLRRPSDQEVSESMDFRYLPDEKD
- Sequence 2: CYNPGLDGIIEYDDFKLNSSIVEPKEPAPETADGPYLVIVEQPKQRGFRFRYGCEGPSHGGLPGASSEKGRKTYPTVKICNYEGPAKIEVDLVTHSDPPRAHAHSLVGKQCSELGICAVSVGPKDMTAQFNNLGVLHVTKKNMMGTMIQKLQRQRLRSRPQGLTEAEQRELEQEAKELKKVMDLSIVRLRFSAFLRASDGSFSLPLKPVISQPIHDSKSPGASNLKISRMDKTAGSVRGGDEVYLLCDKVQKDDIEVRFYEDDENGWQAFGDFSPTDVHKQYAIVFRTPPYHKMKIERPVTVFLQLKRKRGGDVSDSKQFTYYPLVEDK
- ASSAY NOTES: protein binding microarray; high values mean tight binding
- EXPERIMENTAL CONDITIONS: dsDNA, one strand shown
VALUE TYPE: binding signal (z-score)
Give a bare numeral; the unit z-score is implied.

SEQ TEXT	SYSTEM	binding signal [z-score]
AAAGTGCCCCC	C-Rel subunit;p52 subunit (Homo sapiens;Homo sapiens, UniProt Q04864;Q00653 1-285;4-332)	0.619
CGATAGCCCCC	C-Rel subunit;p52 subunit (Homo sapiens;Homo sapiens, UniProt Q04864;Q00653 1-285;4-332)	0.258

For the record CGGATGGTCCC , what value of binding signal is listed for C-Rel subunit;p52 subunit (Homo sapiens;Homo sapiens, UniProt Q04864;Q00653 1-285;4-332)?
0.154

For the record GAAGAGCCCCT , what value of binding signal is listed for C-Rel subunit;p52 subunit (Homo sapiens;Homo sapiens, UniProt Q04864;Q00653 1-285;4-332)?
0.429

---

- SYSTEM: p50p50 homodimer (Homo sapiens, UniProt P19838 7-356)
- Sequence (P19838 7-356): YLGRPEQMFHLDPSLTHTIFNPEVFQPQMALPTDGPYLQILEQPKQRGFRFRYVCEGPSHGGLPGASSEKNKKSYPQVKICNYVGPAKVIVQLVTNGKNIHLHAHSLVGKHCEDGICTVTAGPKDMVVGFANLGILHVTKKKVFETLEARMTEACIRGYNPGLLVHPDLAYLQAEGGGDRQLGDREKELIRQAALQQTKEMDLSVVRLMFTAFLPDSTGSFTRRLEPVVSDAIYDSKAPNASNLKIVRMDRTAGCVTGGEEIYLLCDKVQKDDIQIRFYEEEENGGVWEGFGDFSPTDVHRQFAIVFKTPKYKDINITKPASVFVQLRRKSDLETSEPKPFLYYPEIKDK
- ASSAY NOTES: protein binding microarray; high values mean tight binding
- EXPERIMENTAL CONDITIONS: dsDNA, one strand shown
sequences and their reported binding signal
Returns: string containing the numeric result and its unit.

Reference set, count: 5
SEQ TEXT	binding signal
CGGGGAATCCC	1.22 z-score
AAGTGATTCCT	-0.869 z-score
GGAGGACCCCT	-0.192 z-score
GGAATACTCCC	0.226 z-score
AAGATGCCCCC	1.09 z-score

// lookup binding signal for CGGTGCTTCCC
0.562 z-score

// lookup binding signal for AAAAACCTCCC
0.2 z-score

// lookup binding signal for GGGTGTTCCCC
0.783 z-score

// lookup binding signal for GGGAATCTCCT
0.441 z-score

// lookup binding signal for AAGGGCACCCC
-0.576 z-score

// lookup binding signal for GAGATTGCCCC
0.318 z-score

// lookup binding signal for CAGAGCATCCC
-1.46 z-score

// lookup binding signal for CGGATCTTCCT
-1.67 z-score

// lookup binding signal for CAGAATACCCT
1.12 z-score

// lookup binding signal for GAAAGCTCCCC
0.67 z-score

// lookup binding signal for GGGGAATTCCC
2.07 z-score

// lookup binding signal for GGGAAAGCCCC
1.48 z-score

---

- SYSTEM: p50p50 homodimer (Homo sapiens, UniProt P19838 7-356)
- ASSAY NOTES: protein binding microarray; high values mean tight binding
- EXPERIMENTAL CONDITIONS: dsDNA, one strand shown
Decide by binding signal: equal to or exceeding 0.2 z-score means criterion met, less means criterion not met.

Some solved cases for reference:
SEQ TEXT	LABEL CLASS
CAGAAAGTCCT	criterion not met
GAAGTAATCCT	criterion not met
AAATGGACCCC	criterion not met
AAGAGTACCCT	criterion met
CGAGTGACCCT	criterion not met
CGGGGGTCCCT	criterion met
CGGGACTCCCC	criterion met
CGATACACCCT	criterion not met

State whether the measured binding signal reaches 0.2 z-score, counting equality as reaching it, for AAGATCTCCCT
criterion met

State whether the measured binding signal reaches 0.2 z-score, counting equality as reaching it, for GAATTAGTCCT
criterion not met

State whether the measured binding signal reaches 0.2 z-score, counting equality as reaching it, for AGATGCGCCCT
criterion not met

State whether the measured binding signal reaches 0.2 z-score, counting equality as reaching it, for CAAAATGCCCT
criterion not met

State whether the measured binding signal reaches 0.2 z-score, counting equality as reaching it, for GGAAGTTTCCC
criterion met

State whether the measured binding signal reaches 0.2 z-score, counting equality as reaching it, for AAGTGCTCCCT
criterion not met

---

- SYSTEM: RELARELA (p65 homodimer) (Homo sapiens, UniProt Q04206 1-307)
- Sequence (Q04206 1-307): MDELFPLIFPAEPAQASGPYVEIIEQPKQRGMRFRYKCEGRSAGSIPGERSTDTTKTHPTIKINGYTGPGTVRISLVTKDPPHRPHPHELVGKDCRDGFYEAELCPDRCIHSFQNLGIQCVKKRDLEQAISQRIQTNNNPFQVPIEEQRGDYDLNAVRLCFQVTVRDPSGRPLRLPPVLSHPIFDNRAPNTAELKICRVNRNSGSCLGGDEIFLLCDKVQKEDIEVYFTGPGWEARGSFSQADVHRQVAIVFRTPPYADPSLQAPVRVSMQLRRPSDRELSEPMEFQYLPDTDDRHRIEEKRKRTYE
- ASSAY NOTES: protein binding microarray; high values mean tight binding
- EXPERIMENTAL CONDITIONS: dsDNA, one strand shown
// assign met if binding signal falls strictly below -0.4 z-score, else not met (ties count as not met)

SEQ TEXT	LABEL CLASS
GAGGGCACCCT	met

Is binding signal strictly under -0.4 z-score for the entry CAGAGCACCCT ?
met

Is binding signal strictly under -0.4 z-score for the entry AGATGGTTCCT ?
not met

Is binding signal strictly under -0.4 z-score for the entry CAAGAAACCCT ?
met

Is binding signal strictly under -0.4 z-score for the entry AAAGTCTCCCC ?
not met

Is binding signal strictly under -0.4 z-score for the entry AAAGTTCTCCT ?
not met

Is binding signal strictly under -0.4 z-score for the entry GAGAGACTCCT ?
met

Is binding signal strictly under -0.4 z-score for the entry AGGTATACCCT ?
not met

Is binding signal strictly under -0.4 z-score for the entry CGATAAGCCCC ?
met

---

- SYSTEM: RELB subunit;p52 subunit (Homo sapiens;Homo sapiens, UniProt Q01201;Q00653 120-401;4-332)
- Sequence 1: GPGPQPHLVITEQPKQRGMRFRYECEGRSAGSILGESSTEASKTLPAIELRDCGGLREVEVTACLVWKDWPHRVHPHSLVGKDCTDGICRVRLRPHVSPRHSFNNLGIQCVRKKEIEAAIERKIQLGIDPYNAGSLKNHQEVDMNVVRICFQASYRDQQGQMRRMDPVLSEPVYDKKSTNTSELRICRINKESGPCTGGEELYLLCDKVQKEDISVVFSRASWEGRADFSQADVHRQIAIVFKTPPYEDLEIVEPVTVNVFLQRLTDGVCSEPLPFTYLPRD
- Sequence 2: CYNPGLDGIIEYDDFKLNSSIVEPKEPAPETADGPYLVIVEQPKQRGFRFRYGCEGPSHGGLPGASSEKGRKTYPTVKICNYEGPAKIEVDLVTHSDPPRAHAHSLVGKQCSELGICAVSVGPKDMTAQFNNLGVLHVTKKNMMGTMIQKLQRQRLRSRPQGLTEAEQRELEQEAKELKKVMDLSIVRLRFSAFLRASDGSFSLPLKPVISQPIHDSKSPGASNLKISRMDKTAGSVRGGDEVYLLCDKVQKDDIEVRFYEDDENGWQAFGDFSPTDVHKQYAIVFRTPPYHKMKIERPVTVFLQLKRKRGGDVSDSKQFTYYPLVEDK
- ASSAY NOTES: protein binding microarray; high values mean tight binding
- EXPERIMENTAL CONDITIONS: dsDNA, one strand shown
Decide by binding signal: equal to or exceeding 0.2 z-score means YES, less means NO.

Some solved cases for reference:
SEQ TEXT	LABEL CLASS
GGATACTTCCT	NO
GAATGGCCCCT	YES
GGGGAGGTCCT	YES
CAGTGGGTCCT	NO
AAGAGGTTCCT	NO
CGGATTGCCCC	YES
GAATATATCCC	NO
GGATAGACCCC	NO
AGAAGCTCCCT	NO
AGAAGTCCCCC	YES

State whether the measured binding signal reaches 0.2 z-score, counting equality as reaching it, for AGGAGCGCCCC
NO

State whether the measured binding signal reaches 0.2 z-score, counting equality as reaching it, for CAAGTTCCCCT
YES

State whether the measured binding signal reaches 0.2 z-score, counting equality as reaching it, for AAGGGTGCCCT
NO

State whether the measured binding signal reaches 0.2 z-score, counting equality as reaching it, for AAAAGCACCCC
YES

State whether the measured binding signal reaches 0.2 z-score, counting equality as reaching it, for GAAGTACCCCC
YES

State whether the measured binding signal reaches 0.2 z-score, counting equality as reaching it, for GAGGTCCCCCT
YES

State whether the measured binding signal reaches 0.2 z-score, counting equality as reaching it, for AAAGGTCCCCT
YES

State whether the measured binding signal reaches 0.2 z-score, counting equality as reaching it, for AAGTTCACCCC
YES

State whether the measured binding signal reaches 0.2 z-score, counting equality as reaching it, for AAAATCTTCCC
NO

State whether the measured binding signal reaches 0.2 z-score, counting equality as reaching it, for AAAGTTGCCCC
YES

Origin of the recorded values: paper PMC3218832
